Values were extracted from paper PMC10786891.

# TEST TARGET: T1, EsCas13d, nuclease-dead (Eubacterium siraeum, UniProt B0MS50, R295A;H300A;R849A;H854A)
# T1 sequence: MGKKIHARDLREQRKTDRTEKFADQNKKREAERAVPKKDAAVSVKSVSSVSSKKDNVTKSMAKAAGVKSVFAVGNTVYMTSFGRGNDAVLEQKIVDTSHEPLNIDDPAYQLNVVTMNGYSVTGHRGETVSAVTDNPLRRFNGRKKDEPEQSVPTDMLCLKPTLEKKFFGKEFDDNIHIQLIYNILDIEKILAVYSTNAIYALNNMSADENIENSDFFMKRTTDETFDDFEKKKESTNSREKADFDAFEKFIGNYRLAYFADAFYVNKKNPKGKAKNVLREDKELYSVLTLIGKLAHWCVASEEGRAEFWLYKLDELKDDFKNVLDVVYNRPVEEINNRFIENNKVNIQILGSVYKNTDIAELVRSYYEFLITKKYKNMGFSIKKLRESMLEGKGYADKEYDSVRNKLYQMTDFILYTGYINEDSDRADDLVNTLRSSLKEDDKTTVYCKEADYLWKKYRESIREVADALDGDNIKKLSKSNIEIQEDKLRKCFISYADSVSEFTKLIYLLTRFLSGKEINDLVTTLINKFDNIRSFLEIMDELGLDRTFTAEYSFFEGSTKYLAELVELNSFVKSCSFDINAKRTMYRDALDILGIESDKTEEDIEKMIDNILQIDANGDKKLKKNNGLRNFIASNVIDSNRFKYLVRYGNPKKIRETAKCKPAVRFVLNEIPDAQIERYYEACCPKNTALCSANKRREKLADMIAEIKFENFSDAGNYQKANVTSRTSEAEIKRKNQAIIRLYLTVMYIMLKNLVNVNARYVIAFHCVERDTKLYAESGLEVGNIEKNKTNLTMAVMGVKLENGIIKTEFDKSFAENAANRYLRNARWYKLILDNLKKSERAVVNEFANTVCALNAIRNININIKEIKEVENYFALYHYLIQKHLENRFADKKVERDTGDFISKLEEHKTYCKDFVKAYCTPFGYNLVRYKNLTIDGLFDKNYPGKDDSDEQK
# PROCEDURE DETAILS: crRNA (strand 1, pre-loaded); Mg2+; 40 mM Tris-HCl pH 7.5, 150 mM NaCl, 6 mM MgCl2, 1 mM DTT, 0.1% Tween-20, 0.2 mg/ml BSA; 25 C; 10 min per concentration, then washed
# EXPERIMENTAL CONTEXT: tags: His6-TwinStrep-SUMO cleaved; N-terminal SNAP kept (SNAP-Surface 488); label: 3' end held by stalled T7 RNA polymerase
REPORTED METRIC: Kd (nM)

>>> measured_value("target 1 G13U,C22A (mixed) RNA 1: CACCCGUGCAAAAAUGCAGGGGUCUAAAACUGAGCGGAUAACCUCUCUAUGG RNA 2: GGGAAUGGAUCCACAUCUACGAAUUCGUAACAUAGAGAUGUUAUCCGCUCACCGAGAUCGGAAGAGCACACGU")
63
>>> measured_value("target 1 G15U,G17U (mixed) RNA 1: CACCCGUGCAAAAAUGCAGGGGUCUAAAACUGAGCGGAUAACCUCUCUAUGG RNA 2: GGGAAUGGAUCCACAUCUACGAAUUCGUACCAUAUAUAGGUUAUCCGCUCACCGAGAUCGGAAGAGCACACGU")
86
>>> measured_value("target 3 insA 3' of 8,insA 3' of 8 (mixed) RNA 1: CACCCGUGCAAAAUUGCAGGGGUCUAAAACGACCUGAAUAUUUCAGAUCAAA RNA 2: GGGAAUGGAUCCACAUCUACGAAUUCGUUUUUGAUCUGAAAUAUAAUCAGGUCUGCAGAUCGGAAGAGCACACGU")
63
>>> measured_value("target 3 A5U,C6G (mixed) RNA 1: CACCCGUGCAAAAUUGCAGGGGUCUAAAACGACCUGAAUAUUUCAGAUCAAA RNA 2: GGGAAUGGAUCCACAUCUACGAAUUCGUUUUUGAUCUGAAAUAUUGUGGUCUGCAGAUCGGAAGAGCACACGU")
39
>>> measured_value("target 1 insC 3' of 22,insG 3' of 22 (mixed) RNA 1: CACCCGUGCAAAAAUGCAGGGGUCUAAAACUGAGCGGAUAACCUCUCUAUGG RNA 2: GGGAAUGGAUCCACAUCUACGAAUUCGUACCGCAUAGAGAGGUUAUCCGCUCACCGAGAUCGGAAGAGCACACGU")
12.6
>>> measured_value("target 1 C7U,G15A (mixed) RNA 1: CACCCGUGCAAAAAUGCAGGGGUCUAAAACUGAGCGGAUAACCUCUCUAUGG RNA 2: GGGAAUGGAUCCACAUCUACGAAUUCGUACCAUAGAAAGGUUAUUCGCUCACCGAGAUCGGAAGAGCACACGU")
9.8
>>> measured_value("target 2 MT 5'PFS UUG 3'PFS CAC (mixed) RNA 1: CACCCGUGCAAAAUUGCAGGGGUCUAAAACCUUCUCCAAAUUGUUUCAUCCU RNA 2: GGGAAUGGAUCCACAUCUACGAAUUCUUGAGGAUGAAACAAUUUGGAGAAGCACAGAUCGGAAGAGCACACGU")
16.4
>>> measured_value("target 1 MT 5'PFS UGU 3'PFS UAA (mixed) RNA 1: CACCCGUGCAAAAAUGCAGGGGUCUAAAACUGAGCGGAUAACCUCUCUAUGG RNA 2: GGGAAUGGAUCCACAUCUACGAAUUCUGUCCAUAGAGAGGUUAUCCGCUCAUAAAGAUCGGAAGAGCACACGU")
56
>>> measured_value("target 1 insC 3' of 13,insG 3' of 10 (mixed) RNA 1: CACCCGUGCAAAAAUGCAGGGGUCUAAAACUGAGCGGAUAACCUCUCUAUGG RNA 2: GGGAAUGGAUCCACAUCUACGAAUUCGUACCAUAGAGAGCGUUGAUCCGCUCACCGAGAUCGGAAGAGCACACGU")
15.8
>>> measured_value("target 1 MT 5'PFS GGC 3'PFS AUG (mixed) RNA 1: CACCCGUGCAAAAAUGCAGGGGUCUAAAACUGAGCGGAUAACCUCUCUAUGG RNA 2: GGGAAUGGAUCCACAUCUACGAAUUCGGCCCAUAGAGAGGUUAUCCGCUCAAUGAGAUCGGAAGAGCACACGU")
22.5
>>> measured_value("target 1 MT 5'PFS GUU 3'PFS AUG (mixed) RNA 1: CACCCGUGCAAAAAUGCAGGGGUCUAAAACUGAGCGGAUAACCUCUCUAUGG RNA 2: GGGAAUGGAUCCACAUCUACGAAUUCGUUCCAUAGAGAGGUUAUCCGCUCAAUGAGAUCGGAAGAGCACACGU")
56
>>> measured_value("target 1 insG 3' of 7,insU 3' of 4 (mixed) RNA 1: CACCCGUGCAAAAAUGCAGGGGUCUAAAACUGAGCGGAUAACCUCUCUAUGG RNA 2: GGGAAUGGAUCCACAUCUACGAAUUCGUACCAUAGAGAGGUUAUCGCGCUUCACCGAGAUCGGAAGAGCACACGU")
6.4
>>> measured_value("target 1 insA 3' of 10,insU 3' of 9 (mixed) RNA 1: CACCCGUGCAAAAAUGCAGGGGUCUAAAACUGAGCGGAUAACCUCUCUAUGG RNA 2: GGGAAUGGAUCCACAUCUACGAAUUCGUACCAUAGAGAGGUUAAUUCCGCUCACCGAGAUCGGAAGAGCACACGU")
13.9
>>> measured_value("target 1 insU 3' of 15,insU 3' of 14 (mixed) RNA 1: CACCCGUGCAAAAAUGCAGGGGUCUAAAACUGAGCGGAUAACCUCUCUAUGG RNA 2: GGGAAUGGAUCCACAUCUACGAAUUCGUACCAUAGAGUAUGGUUAUCCGCUCACCGAGAUCGGAAGAGCACACGU")
53
